# Tested on: SK-MEL-5 melanoma
# Test Summary: NCI-60 one-dose screen, 48 h (100 = growth as untreated, 0 = no growth, -100 = all killed)
# Condition Summary: 10 µM unless noted
About 83,000 compounds went through this panel and 20% of them were active in at least one assay; those are over-represented in the sample as a whole. The source made the active and inactive calls. How the source made its calls: active means growth percent below 10; inactive means the rest.
Readout Label: growth

1) CCC(Br)(CC)C(=O)NC(N)=O; 99.2% (inactive)
2) Cc1ccccc1-n1c(/C=C\c2ccccn2)nc2ccccc2c1=O; 73.7% (inactive)
3) CCCCS(=O)(=O)Cl; 98.2% (inactive)
4) ClC1OC(Cl)(Cl)C(Cl)(Cl)OC1(Cl)Cl (configuration not stated); 100% (inactive)
5) CC1(C)N(Nc2ccccc2)C(=O)C2CCCN21 (configuration not stated); 97.5% (inactive)
6) C=CCOC(=O)C(Br)CC (configuration not stated); 99.3% (inactive)
7) Cc1cc[c-]cc1.Fc1c[c-]c(-c2ccccn2)c(F)c1.[Pt+2].c1ccc([PH+](c2ccccc2)c2ccccn2)cc1; 77.5% (inactive)
8) Cc1ccc(P(=O)(O)O)cc1; 107% (inactive)
9) O=NN(c1ccccc1)c1ccccc1; 98.6% (inactive)
10) Cc1cc[c-]cc1.Fc1c[c-]c(-c2ccccn2)c(F)c1.N#CCC[PH+](CCC#N)c1ccccc1.[Pt+2]; 68.6% (inactive)

Test system SK-MEL-5 melanoma; read-out growth; what value for `O=C1CN2CCC1CC2` ? 103% (inactive)

Test system SK-MEL-5 melanoma; read-out growth; what value for COC12CC3(C)C(C4=CC(=O)OC4)CCC3(O)C3CCC4=CC(=O)CCC4(CO1)C32 (configuration not stated) ? 106% (inactive)

---

# Test system: PC-3 prostate
# Test Summary: NCI-60 one-dose screen, 48 h (100 = growth as untreated, 0 = no growth, -100 = all killed)
# Condition Summary: 10 µM unless noted
Compounds without any hit were thinned out: in the full panel of roughly 83,000, 20% have a hit.
Mark each entry T if its growth sits below 90%, and F for all others.

Field: example entries. Status: answers known.
1) C[C@]12CC[C@@H](OC(=O)N(CCCl)N=O)C[C@@H]1CC[C@@H]1[C@@H]2CC[C@]2(C)C(=O)CC[C@@H]12; T
2) CC[C@H](C)[C@H]1O[C@]2(C=C[C@@H]1C)C[C@@H]1C[C@@H](C/C=C(\C)[C@@H](O[C@H]3C[C@H](OC)[C@@H](O[C@H]4C[C@H](OC)[C@@H](NC)[C@H](C)O4)[C@H](C)O3)[C@@H](C)/C=C/C=C3\CO[C@@H]4[C@H](O)C(C)=C[C@@H](C(=O)O1)[C@]34O)O2; T
3) CC1(C)S[C@H]2CC[C@H]3OC(=O)[C@@H]1N23; T
4) Nc1c(Cl)c(Cl)nc(C(=O)O)c1Cl; T
5) CC[C@H](C)[C@H](NC(=O)CN(C)C)C(=O)N(C)[C@H](C[C@@H](OC(C)=O)c1nc(C(=O)NC23C4C5C2C2C3C4C52C(=O)OC)cs1)C(C)C (stereo partly specified); T

Regarding `CC1(C)N=C(N)N=C(N)N1c1ccc(CCC(=O)Nc2ccc(S(=O)(=O)F)cc2)cc1` , kindly confirm whether its growth is beneath 90%. T

Regarding `Cc1cc(C(C)(C)C)ccc1O` , kindly confirm whether its growth is beneath 90%. F

Regarding ClC1OC(Cl)(Cl)C(Cl)(Cl)OC1(Cl)Cl (stereo unspecified) , kindly confirm whether its growth is beneath 90%. F

Regarding `O=Cc1cn(Cc2ccccc2)c2ccccc12` , kindly confirm whether its growth is beneath 90%. F

Regarding O=C1c2ccccc2C(=O)N1N1CC1c1ccccc1 (stereo unspecified) , kindly confirm whether its growth is beneath 90%. F

Regarding `COc1cc2c(cc1OC)[C@@H]1C(=O)c3ccc4c(c3O[C@@H]1CO2)C[C@H](C(C)C)O4` , kindly confirm whether its growth is beneath 90%. T

Regarding CCOC(=O)C1C(C=C(C)C)C1(C)C (stereo unspecified) , kindly confirm whether its growth is beneath 90%. F

Regarding CC1(C)N(Nc2ccccc2)C(=O)C2CCCN21 (stereo unspecified) , kindly confirm whether its growth is beneath 90%. T

Regarding `N#CCN(CC#N)[N+](=O)[O-]` , kindly confirm whether its growth is beneath 90%. F

Regarding O=P1(N(CCCl)CCCl)NCCCO1 (stereo unspecified) , kindly confirm whether its growth is beneath 90%. F
